# assay_target: β-Trypsin (Bos taurus, UniProt P00760)
# Construct: bovine β-trypsin; made in house
# Sequence (P00760 24-246): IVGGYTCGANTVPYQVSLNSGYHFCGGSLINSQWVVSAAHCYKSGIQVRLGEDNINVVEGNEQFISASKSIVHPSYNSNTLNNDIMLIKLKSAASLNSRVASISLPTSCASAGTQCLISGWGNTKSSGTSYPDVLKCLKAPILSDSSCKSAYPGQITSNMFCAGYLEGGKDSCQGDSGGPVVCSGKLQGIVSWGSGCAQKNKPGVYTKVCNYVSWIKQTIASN
# test: Dixon plot competitive inhibition of hydrolysis of benzyloxy-lysine-nitrophenyl ester by β-trypsin
# Assay type: biochemical, bovine
# experimental_conditions: Dixon plots, pH 6.0; Ki (M) x 10^5; read-out: Inhibition constant Ki (M) x 10^5, β-Trypsin
reported_property: Ki (M)

I. N=C(N)c1cccc(CS(=O)(=O)Oc2ccc([N+](=O)[O-])cc2)c1 [m-isomer]
II. N=C(N)c1ccc(CS(=O)(=O)Oc2ccc([N+](=O)[O-])cc2)cc1 [p-isomer]
Input line: Select the item whose Ki value is smaller, choosing between I and II . Pick one and reply with its label.
Output line: I
(I: 9e-06 M, II: 7e-05 M)
